# System: MDA-MB-468
# EXPERIMENT: phospho-S6 immunofluorescence (DAPI-normalised), per-plate z-score; higher = higher phospho-S6 signal (less pathway suppression)
# MEASUREMENT CONDITIONS: co-treatment: GDC0941 450 nM; 24 h
Structures can show the parent of a compound that is named as a salt.
# phospho-S6 immunofluorescence (z-score) annotations
PARAMETER: phospho-S6 immunofluorescence (z-score)

# MOLECULE, PARAMETER, EXPERIMENTAL RESULT
data = [
    ("CCC(=O)OCC(=O)[C@@]1(OC(=O)CC)[C@@H](C)C[C@H]2[C@@H]3CCC4=CC(=O)C=C[C@]4(C)[C@@]3(Cl)[C@@H](O)C[C@@]21C [Beclometasone dipropionate] (compound 10 µM)", "phospho-S6 immunofluorescence (z-score)", 0.45),
    ("CC(=O)Nc1cccc2c1c(Sc1ccc(Cl)cc1)c(C)n2CC(=O)O (compound 10 µM)", "phospho-S6 immunofluorescence (z-score)", 0.52),
    ("CNS(=O)(=O)CCc1ccc2[nH]cc(C3CCN(C)CC3)c2c1 [Naratriptan (hydrochloride)] (compound 10 µM)", "phospho-S6 immunofluorescence (z-score)", -0.23),
    ("CN(C)C(=O)CCSC(SCCC(=O)O)c1cccc(/C=C/c2ccc3ccc(Cl)cc3n2)c1 (stereo unspecified) [MK-571 (sodium salt)] (compound 10 µM)", "phospho-S6 immunofluorescence (z-score)", -0.65),
    ("C[C@@H]1C[C@H]2[C@@H]3CCC4=CC(=O)C=C[C@]4(C)[C@@]3(F)[C@@H](O)C[C@]2(C)[C@@]1(O)C(=O)CO [Dexamethasone] (compound 10 µM)", "phospho-S6 immunofluorescence (z-score)", 0.1),
    ("Cc1nc(C#Cc2cccnc2)cs1 [MTEP (hydrochloride)] (compound 10 µM)", "phospho-S6 immunofluorescence (z-score)", -0.31),
    ("NC1=NCC2c3ccccc3Cc3ccccc3N12 (stereo unspecified) [Epinastine] (compound 10 µM)", "phospho-S6 immunofluorescence (z-score)", -0.05),
    ("Cc1cc(C(C)(C)C)cc(C)c1CC1=NCCN1 [Xylometazoline (hydrochloride)] (compound 10 µM)", "phospho-S6 immunofluorescence (z-score)", 0.43),
    ("C[C@H](Cc1cc2c(c(C(N)=O)c1)N(CCCO)CC2)NCCOc1ccccc1OCC(F)(F)F [Silodosin] (compound 10 µM)", "phospho-S6 immunofluorescence (z-score)", -0.57),
    ("Cc1c(-c2ccccc2)oc2c(C(=O)OCCN3CCCCC3)cccc2c1=O [Flavoxate (hydrochloride)] (compound 10 µM)", "phospho-S6 immunofluorescence (z-score)", 0.25),
    ("CN1[C@@H]2CC[C@H]1C[C@@H](OC(=O)C(O)c1ccccc1)C2 (stereo partly specified) [Homatropine (Bromide)] (compound 10 µM)", "phospho-S6 immunofluorescence (z-score)", -0.26),
    ("C[C@]12C=CC(=O)C=C1CC[C@@H]1[C@@H]2C(=O)C[C@@]2(C)[C@H]1CC[C@]2(O)C(=O)CO [Prednisone] (compound 10 µM)", "phospho-S6 immunofluorescence (z-score)", 0.55),
    ("Cc1c(C(=O)NN2CCCCC2)nn(-c2ccc(Cl)cc2Cl)c1-c1ccc(Cl)cc1 [Rimonabant (Hydrochloride)] (compound 10 µM)", "phospho-S6 immunofluorescence (z-score)", -3.49),
    ("CC(C)[N+]1(C)[C@@H]2CC[C@H]1C[C@@H](OC(=O)C(CO)c1ccccc1)C2 (stereo partly specified) [Ipratropium (bromide)] (compound 10 µM)", "phospho-S6 immunofluorescence (z-score)", -0.02),
    ("O=C(Nc1cccc2c(=O)cc(-c3nnn[nH]3)oc12)c1ccc(OCCCCc2ccccc2)cc1 [Pranlukast] (compound 10 µM)", "phospho-S6 immunofluorescence (z-score)", 0.87),
    ("NC[C@H](O)c1ccc(O)c(O)c1 [Norepinephrine (bitartrate monohydrate)] (compound 10 µM)", "phospho-S6 immunofluorescence (z-score)", 0.52),
    ("O=C1c2cccc3c2[C@H](CCC3)CN1[C@@H]1CN2CCC1CC2 [Palonosetron (Hydrochloride)] (compound 10 µM)", "phospho-S6 immunofluorescence (z-score)", -0.7),
    ("CCOc1nc2cccc(C(=O)OC(C)OC(=O)OC3CCCCC3)c2n1Cc1ccc(-c2ccccc2-c2nn[nH]n2)cc1 (stereo unspecified) [Candesartan (Cilexetil)] (compound 10 µM)", "phospho-S6 immunofluorescence (z-score)", -1.58),
    ("CN(C)CCc1c[nH]c2ccc(CS(=O)(=O)N3CCCC3)cc12 [Almotriptan (malate)] (compound 10 µM)", "phospho-S6 immunofluorescence (z-score)", 0.95),
    ("N#Cc1ccc2[nH]cc(CCCCN3CCN(c4ccc5oc(C(N)=O)cc5c4)CC3)c2c1 [Vilazodone (Hydrochloride)] (compound 10 µM)", "phospho-S6 immunofluorescence (z-score)", -0.01),
    ("CC(C)(C)NCC(O)c1cc(O)cc(O)c1 (stereo unspecified) [Terbutaline (sulfate)] (compound 10 µM)", "phospho-S6 immunofluorescence (z-score)", 0.52),
    ("Cc1nccn1CC1CCc2c(c3ccccc3n2C)C1=O (stereo unspecified) [Ondansetron (hydrochloride dihydrate)] (compound 10 µM)", "phospho-S6 immunofluorescence (z-score)", 0.11),
    ("COC(=O)CCc1ccc(OCC(O)CNC(C)C)cc1 (stereo unspecified) [Esmolol (hydrochloride)] (compound 10 µM)", "phospho-S6 immunofluorescence (z-score)", 1.52),
    ("CNC(=O)c1cnn(-c2nc(N)c3ncn([C@@H]4O[C@H](CO)[C@@H](O)[C@H]4O)c3n2)c1 [Regadenoson] (compound 10 µM)", "phospho-S6 immunofluorescence (z-score)", 1.19),
    ("CC(=O)OCC(=O)[C@@]12N=C(C)O[C@@H]1C[C@H]1[C@@H]3CCC4=CC(=O)C=C[C@]4(C)[C@H]3[C@@H](O)C[C@@]12C [Deflazacort] (compound 10 µM)", "phospho-S6 immunofluorescence (z-score)", -0.99),
    ("CN1CCCC(n2nc(Cc3ccc(Cl)cc3)c3ccccc3c2=O)CC1 (stereo unspecified) [Azelastine (hydrochloride)] (compound 10 µM)", "phospho-S6 immunofluorescence (z-score)", 0.6),
]
